Origin of measurements: paper PMC9721025

assay: Pharmacokinetics in beagles, single-dose regimen of TRQI (i.v.) or TRQC (oral), plasma LC-MS/MS; format: in vivo, beagle; details: male, beagle, dog, plasma, iv, 0.5 mL/kg, single TRQI 0.5 mL/kg; beagle No 3; read-out: AUC0–24 h
reported-metric: AUC(0-t)
Answer with the figure and its unit, nothing else.

Below, 2 compounds whose answers are already recorded.
C[C@H](CCC(=O)O)[C@H]1CC[C@H]2[C@@H]3[C@@H](O)C[C@@H]4C[C@H](O)CC[C@]4(C)[C@H]3CC[C@]12C : 2120 ng·h/mL
C[C@H](CCC(=O)O)[C@H]1CC[C@H]2[C@@H]3[C@H](O)C[C@@H]4C[C@H](O)CC[C@]4(C)[C@H]3CC[C@]12C : 238 ng·h/mL

Fill blank: measured AUC(0-t) of the compound `O=C(O)[C@H]1O[C@@H](Oc2cc3oc(-c4ccccc4)cc(=O)c3c(O)c2O)[C@H](O)[C@@H](O)[C@@H]1O` is ____.
0.47 ng·h/mL

====

assay: Stability of analytes in dog plasma (QC samples); format: in vitro ADME; settings: n = 3, high QC: nominal 200 ng/mL baicalin, 1000 ursodeoxycholic acid, 100 chenodeoxycholic acid and chlorogenic acid
Long-term stability (30 days at – 80 °C) Mean ± S.D. concentration listing for selected compounds.
Write the number in ng/mL without appending the unit.

O=C(/C=C/c1ccc(O)c(O)c1)O[C@@H]1C[C@](O)(C(=O)O)C[C@@H](O)[C@H]1O : 87.31
C[C@H](CCC(=O)O)[C@H]1CC[C@H]2[C@@H]3[C@H](O)C[C@@H]4C[C@H](O)CC[C@]4(C)[C@H]3CC[C@]12C : 101.23

Fill blank: measured Long-term stability (30 days at – 80 °C) Mean ± S.D. concentration of the compound `C[C@H](CCC(=O)O)[C@H]1CC[C@H]2[C@@H]3[C@@H](O)C[C@@H]4C[C@H](O)CC[C@]4(C)[C@H]3CC[C@]12C` is ____.
1081.75

Fill blank: measured Long-term stability (30 days at – 80 °C) Mean ± S.D. concentration of the compound `O=C(O)[C@H]1O[C@@H](Oc2cc3oc(-c4ccccc4)cc(=O)c3c(O)c2O)[C@H](O)[C@@H](O)[C@@H]1O` is ____.
175.01

====

test: Pharmacokinetics in beagles, multiple-dose regimen (once per day for 7 days) of TRQI or TRQC, plasma LC-MS/MS; format: in vivo; settings: male, beagle, dog, iv, 0.5 mL/kg, TRQI 0.5 mL/kg for 7 days, beagle No. 2, read-out: AUC0–24 h
reported-metric: AUC(0-t) (ng·h/mL)
Write the number in ng·h/mL without appending the unit.

C[C@H](CCC(=O)O)[C@H]1CC[C@H]2[C@@H]3[C@@H](O)C[C@@H]4C[C@H](O)CC[C@]4(C)[C@H]3CC[C@]12C : 1720
O=C(/C=C/c1ccc(O)c(O)c1)O[C@@H]1C[C@](O)(C(=O)O)C[C@@H](O)[C@H]1O : 5.24
O=C(O)[C@H]1O[C@@H](Oc2cc3oc(-c4ccccc4)cc(=O)c3c(O)c2O)[C@H](O)[C@@H](O)[C@@H]1O : 370

Please examine the following record next.
Fill blank: measured AUC(0-t) of the compound `C[C@H](CCC(=O)O)[C@H]1CC[C@H]2[C@@H]3[C@H](O)C[C@@H]4C[C@H](O)CC[C@]4(C)[C@H]3CC[C@]12C` is ____.
121

====

AUC(0-t) listing for selected compounds.
experiment: Pharmacokinetics in beagles, multiple-dose regimen (once per day for 7 days) of TRQI or TRQC, plasma LC-MS/MS; format: in vivo; conditions: female, beagle, dog, iv, 0.5 mL/kg, TRQI 0.5 mL/kg for 7 days, beagle No. 5, read-out: AUC0–24 h
Write the number in ng·h/mL without appending the unit.

Below, 3 compounds whose answers are already recorded.
C[C@H](CCC(=O)O)[C@H]1CC[C@H]2[C@@H]3[C@@H](O)C[C@@H]4C[C@H](O)CC[C@]4(C)[C@H]3CC[C@]12C : 2560
C[C@H](CCC(=O)O)[C@H]1CC[C@H]2[C@@H]3[C@H](O)C[C@@H]4C[C@H](O)CC[C@]4(C)[C@H]3CC[C@]12C : 234
O=C(O)[C@H]1O[C@@H](Oc2cc3oc(-c4ccccc4)cc(=O)c3c(O)c2O)[C@H](O)[C@@H](O)[C@@H]1O : 526

Fill blank: measured AUC(0-t) of the compound `O=C(/C=C/c1ccc(O)c(O)c1)O[C@@H]1C[C@](O)(C(=O)O)C[C@@H](O)[C@H]1O` is ____.
23.9

====

AUC(0-inf) listing for selected molecules.
assay: Pharmacokinetics in beagles, multiple-dose regimen (once per day for 7 days) of TRQI or TRQC, plasma LC-MS/MS; type: in vivo; details: male, beagle, dog, po, 0.09 g/kg, TRQC 0.09 g/kg for 7 days, beagle No. 2
Write the number in ng·h/mL without appending the unit.

Below, 3 molecules whose answers are already recorded.
O=C(O)[C@H]1O[C@@H](Oc2cc3oc(-c4ccccc4)cc(=O)c3c(O)c2O)[C@H](O)[C@@H](O)[C@@H]1O : 164
C[C@H](CCC(=O)O)[C@H]1CC[C@H]2[C@@H]3[C@H](O)C[C@@H]4C[C@H](O)CC[C@]4(C)[C@H]3CC[C@]12C : 1930
O=C(/C=C/c1ccc(O)c(O)c1)O[C@@H]1C[C@](O)(C(=O)O)C[C@@H](O)[C@H]1O : 3.2

Please examine the following record next.
Fill blank: measured AUC(0-inf) of the molecule `C[C@H](CCC(=O)O)[C@H]1CC[C@H]2[C@@H]3[C@@H](O)C[C@@H]4C[C@H](O)CC[C@]4(C)[C@H]3CC[C@]12C` is ____.
24400

====

test: Pharmacokinetics in beagles, single-dose regimen of TRQI (i.v.) or TRQC (oral), plasma LC-MS/MS; type: in vivo, beagle; conditions: male, beagle, dog, plasma, iv, 0.5 mL/kg, single TRQI 0.5 mL/kg; beagle No 1; read-out: AUC0–24 h
AUC(0-t) listing for selected compounds.

Below, 3 compounds whose answers are already recorded.
C[C@H](CCC(=O)O)[C@H]1CC[C@H]2[C@@H]3[C@H](O)C[C@@H]4C[C@H](O)CC[C@]4(C)[C@H]3CC[C@]12C : 1490 ng·h/mL
O=C(/C=C/c1ccc(O)c(O)c1)O[C@@H]1C[C@](O)(C(=O)O)C[C@@H](O)[C@H]1O : 29.6 ng·h/mL
O=C(O)[C@H]1O[C@@H](Oc2cc3oc(-c4ccccc4)cc(=O)c3c(O)c2O)[C@H](O)[C@@H](O)[C@@H]1O : 44.5 ng·h/mL

Please examine the following record next.
Fill blank: measured AUC(0-t) of the compound `C[C@H](CCC(=O)O)[C@H]1CC[C@H]2[C@@H]3[C@@H](O)C[C@@H]4C[C@H](O)CC[C@]4(C)[C@H]3CC[C@]12C` is ____.
18200 ng·h/mL

====

test: Pharmacokinetics in beagles, multiple-dose regimen (once per day for 7 days) of TRQI or TRQC, plasma LC-MS/MS; assay type: in vivo; settings: female, beagle, dog, iv, 0.5 mL/kg, TRQI 0.5 mL/kg for 7 days, beagle No. 6, read-out: AUC0–24 h
reported-metric: AUC(0-t) (ng·h/mL)
Write the number in ng·h/mL without appending the unit.

Below, 3 compounds whose answers are already recorded.
O=C(O)[C@H]1O[C@@H](Oc2cc3oc(-c4ccccc4)cc(=O)c3c(O)c2O)[C@H](O)[C@@H](O)[C@@H]1O [Baicalin, baicalin] : 865
C[C@H](CCC(=O)O)[C@H]1CC[C@H]2[C@@H]3[C@H](O)C[C@@H]4C[C@H](O)CC[C@]4(C)[C@H]3CC[C@]12C [Chenodeoxycholic acid, chenodeoxycholic acid] : 138
C[C@H](CCC(=O)O)[C@H]1CC[C@H]2[C@@H]3[C@@H](O)C[C@@H]4C[C@H](O)CC[C@]4(C)[C@H]3CC[C@]12C [Ursodeoxycholic acid, ursodeoxycholic acid] : 2670

Please examine the following record next.
Fill blank: measured AUC(0-t) of the compound O=C(/C=C/c1ccc(O)c(O)c1)O[C@@H]1C[C@](O)(C(=O)O)C[C@@H](O)[C@H]1O [Chlorogenic acid, chlorogenic acid] is ____.
30

====

experiment: Pharmacokinetics in beagles, multiple-dose regimen (once per day for 7 days) of TRQI or TRQC, plasma LC-MS/MS; type: in vivo; conditions: male, beagle, dog, po, 0.09 g/kg, TRQC 0.09 g/kg for 7 days, beagle No. 1
reported-metric: AUC(0-inf) (ng·h/mL)
Write the number in ng·h/mL without appending the unit.

C[C@H](CCC(=O)O)[C@H]1CC[C@H]2[C@@H]3[C@H](O)C[C@@H]4C[C@H](O)CC[C@]4(C)[C@H]3CC[C@]12C : 231
O=C(/C=C/c1ccc(O)c(O)c1)O[C@@H]1C[C@](O)(C(=O)O)C[C@@H](O)[C@H]1O : 1.31
O=C(O)[C@H]1O[C@@H](Oc2cc3oc(-c4ccccc4)cc(=O)c3c(O)c2O)[C@H](O)[C@@H](O)[C@@H]1O : 80.5

Please examine the following record next.
Fill blank: measured AUC(0-inf) of the compound `C[C@H](CCC(=O)O)[C@H]1CC[C@H]2[C@@H]3[C@@H](O)C[C@@H]4C[C@H](O)CC[C@]4(C)[C@H]3CC[C@]12C` is ____.
2940
